Experiment: Fragmentation of pyridine adducts in deuterated aqueous buffer followed by 1H NMR
Type: physicochemical
Details: 50° C.; relative to 5e = 1.00
Description: The fragmentation of cationic adducts was followed by ^1H NMR in deuterated buffer, with the relative concentration of each species established by integration of unique resonances. Each adduct in Table 3 and Table 4 was thus examined in three independent runs. […]
Readings of krel for the listed molecules
Property Measured: krel

>>> print(df.to_string())
                                   molecule  property_measured  reported_value
0  NC(=O)c1cc[n+](C2CCC3SC2CCC3[n+]2ccc(C(N)=O)cc2)cc1.O=[N+]([O-])[O-].O=[N+]([O-])[O-] (centres unmarked)               krel            1.00
1  N#Cc1ccc[n+](C2CCC3SC2CCC3[n+]2cccc(C#N)c2)c1.O=[N+]([O-])[O-].O=[N+]([O-])[O-] (centres unmarked)               krel            6.68
2  COc1cc(Br)c[n+](C2CCC3SC2CCC3[n+]2cc(Br)cc(OC)c2)c1.O=[N+]([O-])[O-].O=[N+]([O-])[O-] (centres unmarked)               krel            4.64
3  COC(=O)c1cc[n+](C2CCC3SC2CCC3[n+]2ccc(C(=O)OC)cc2)cc1.O=[N+]([O-])[O-].O=[N+]([O-])[O-] (centres unmarked)               krel            2.25
4  NC(=O)c1ccc[n+](C2CCC3SC2CCC3[n+]2cccc(C(N)=O)c2)c1.O=[N+]([O-])[O-].O=[N+]([O-])[O-] (centres unmarked)               krel            1.95
5  Brc1ccc[n+](C2CCC3SC2CCC3[n+]2cccc(Br)c2)c1.O=[N+]([O-])[O-].O=[N+]([O-])[O-] (centres unmarked)               krel            4.05
6  COC(=O)c1ccc[n+](C2CCC3SC2CCC3[n+]2cccc(C(=O)OC)c2)c1.O=[N+]([O-])[O-].O=[N+]([O-])[O-] (centres unmarked)               krel            1.86
7  FC(F)(F)c1ccc[n+](C2CCC3SC2CCC3[n+]2cccc(C(F)(F)F)c2)c1.O=[N+]([O-])[O-].O=[N+]([O-])[O-] (centres unmarked)               krel            46.2
